Target: Calcium-dependent protein kinase 4 (Plasmodium falciparum (isolate 3D7)) (UniProt Q8IBS5)
Sequence (Q8IBS5 whole entry, looked up): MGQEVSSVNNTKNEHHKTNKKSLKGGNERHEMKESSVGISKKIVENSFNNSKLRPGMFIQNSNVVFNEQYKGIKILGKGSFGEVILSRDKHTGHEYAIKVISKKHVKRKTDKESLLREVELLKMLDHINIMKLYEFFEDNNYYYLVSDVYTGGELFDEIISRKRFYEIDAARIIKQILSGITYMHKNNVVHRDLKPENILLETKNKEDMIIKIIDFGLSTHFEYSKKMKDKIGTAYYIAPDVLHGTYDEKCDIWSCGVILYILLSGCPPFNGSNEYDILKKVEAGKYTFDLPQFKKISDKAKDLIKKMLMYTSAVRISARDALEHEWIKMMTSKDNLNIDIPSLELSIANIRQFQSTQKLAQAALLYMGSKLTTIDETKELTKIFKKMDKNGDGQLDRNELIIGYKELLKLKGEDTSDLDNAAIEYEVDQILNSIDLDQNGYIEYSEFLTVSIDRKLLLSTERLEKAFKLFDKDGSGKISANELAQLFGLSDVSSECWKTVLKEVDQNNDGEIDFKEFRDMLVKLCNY
Test: PfCDPK4 kinase inhibitors, biochemical, TCAMS library (AID 1159588)
Conditions: recombinant PfCDPK4, Kinase-Glo ATP depletion luminescence
Potency and affinity values are given separately. The source made the active and inactive calls. No cut-off is given here; in the data, nearly all actives have IC50 up to about 0.91 µM.
Result Type: outcome

In the examples that follow, each entry is paired with its recorded outcome.
O=C(C=Cc1ccc(Cl)c(Cl)c1)NCCCCCN1CCCC(CCCNC(=O)c2ccc3c(c2)OCO3)C1 (centres undefined) | inactive
COc1ccc(C2C(C(=O)Nc3ccc4c(c3)OCO4)c3cc(OC)c(OC)cc3C(=O)N2C)cc1 (centres undefined) | inactive
COc1cc(-c2nc3c4ccccc4c4ccccc4c3[nH]2)cc(OC)c1OC | inactive
COc1ccc(-c2ccc(NC(=O)c3ccc(Cl)cc3)cc2)cc1CN1CCN(C)CC1 | inactive
Cc1ccc(Nc2nnc(SCC(=O)Nc3ccc(CN4CCCC4)cc3)s2)cc1 | inactive

Working through the 3 compounds below one at a time, give outcome for each.
1. COc1ccc2ncc(F)c(CCN3CCC(NCc4cnc5c(c4)NC(=O)CS5)CC3)c2c1
2. CCCCOP(=O)(OCCCC)C(=Cc1ccc(O)c2ccccc12)P(=O)(OCCCC)OCCCC
3. CCCC(=O)Nc1ccc(OCCCN(Cc2ccccc2OC(F)(F)F)c2ccc(C#N)c(C(F)(F)F)c2)cc1

inactive
inactive
inactive

What is its outcome for Calcium-dependent protein kinase 4 (Plasmodium falciparum (isolate 3D7)) (UniProt Q8IBS5)? Entry: `COc1c(C2=CCN(CCCCNC(=O)c3ccc(-c4ccc(C#N)cc4)cc3)CC2)ccc2c1CCCC2`
inactive

====

Experiment: HepG2 cytotoxicity, primary screen, cytotoxicity control for P. falciparum antimalarial project, cell-based, ATP luminescence (AID 2303)
Conditions: HepG2 viability, 24-48 h, at 10 µM
Activity calls are given as the source filed them.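 Rule for the calls: active = inhibition above 50%; inactive = the rest.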
Permitted responses: active, inactive

Please state the recorded outcome for this molecule: `Clc1ccc(-c2ccc(CNCCCN3CCCC3)cc2)cc1`
inactive

For this molecule, state the assay outcome: `O=S(=O)(NCCCN1CCOCC1)c1ccc2nccc(Nc3ccc(Oc4ccccc4)cc3)c2c1`
inactive

Call for entry `COc1ccc(-c2cccc(NC(=O)c3cccs3)c2)cc1CN1CCCN(C)CC1` :
inactive

Can you look up the reported call for CCC1CCc2cc(N)cc(-c3nc4c(c(C)nn4CC)c(=O)[nH]3)c2O1 (centres undefined) for me?
inactive

Hello, I am checking results. What call was entered for `COc1cc(F)c2ncc(Cl)c(CCN3CCC(NCc4ccc5c(c4)NC(=O)CS5)CC3)c2c1` ?
inactive

For this molecule, state the assay outcome: `O=C(Nc1ccc(Cl)cc1)c1ccc(CN2CCCN(Cc3ccc(F)cc3)CC2)cc1`
inactive

Outcome? `CCOC(=O)c1[nH]c(-c2cccnc2)nc1NC(=S)NCc1ccccc1`
inactive

What classification did COc1ccc(OC(C)CNC(=O)c2cc([N+](=O)[O-])ccc2-c2ccc(OC)cc2)cc1 (centres undefined) end up with in this test?
inactive

Record request — test call for `COc1ccc(CN2CCC(CNCC(c3ccccc3)c3ccccc3)CC2)cc1`
active

Please state the recorded outcome for this molecule: `CN1CCN(c2ccnc3ccc(NC(=O)Nc4ccc(Cl)cc4)cc23)CC1`
inactive

How did this test come out for `O=C(N1CCN(c2ccc(C(F)(F)F)cc2[N+](=O)[O-])CC1)C(Cl)(Cl)Cl` ?
inactive

Please let me know the test result on file for `CN(C(=O)Nc1ccc(C(F)(F)F)cc1)C1CCN(CCCCCNC(=O)/C=C/c2ccc(Cl)c(Cl)c2)CC1` .
active

What did this assay record as the result for O=c1cc(NCCC(CNCc2ccoc2)NCc2cc(Br)cc(Br)c2)[nH]c2ccccc12 (centres undefined) ?
inactive

Given CCC(C)NC(=O)CN1CN(c2ccccc2)C2(CCN(C(=O)c3ccc(-c4ccccc4)cc3)CC2)C1=O (centres undefined) , state the outcome it received in this test.
inactive

// outcome(item) with item = `Cc1c(F)cc(C(=O)NC2CC2)cc1-c1ccc2c(cnn2S(=O)(=O)c2ccc(C#N)cc2)c1`
inactive

What classification did `Cn1cc(C2CCN(CCCCNC(=O)c3ccc(-c4ccc(C(F)(F)F)cc4)c(CO)c3)CC2)c2ccccc21` end up with in this test?
active

Could you kindly confirm the outcome this assay logged for O=C(CCCCCNC(=O)c1ccc(O)c(-c2ccc(Cl)c(Cl)c2)c1)NC1CCCc2ccccc21 (centres undefined) ?
inactive

Dear colleague, could you share the recorded outcome for `Cc1cc(NC2CCN(Cc3ccccc3)CC2)nc(NCCCCc2ccccc2)n1` when you have a moment?
active

Query: recorded result category for O=C(/C=C/c1ccc(Cl)cc1)NCCCCCN1CCCC(C(=O)Nc2ccc(Cl)c(Cl)c2)C1 (centres undefined) in this test
inactive

Reference source: PubChem BioAssay
